Recorded % remaining at 60 minutes by entry
assay: Liver S9 fraction stability, monkey; assay type: in vitro ADME, cynomolgus monkey; conditions: monkey liver S9, 1.0 mg/ml S9 protein, 2 μM, 37° C.

Some solved entries appear below for comparison.
CCCCCCCCCCCCCCCC(=O)OC1CCCn2c1nc(C)c(CCN1CCC(c3noc4cc(F)ccc34)CC1)c2=O (stereo not drawn) [Paliperidone palmitate, reference compound]	57.4%
C=C1CC[C@@]2(O)C3Cc4ccc(OCOC(=O)OCCCCCCCCCCCC)c5c4[C@@]2(CCN3CC2CC2)[C@H]1O5	3%

# ---- query compound ----
Respond only with % remaining at 60 minutes recorded for "C=C1CC[C@@]2(O)C3Cc4ccc(OC(=O)OCCCCCCCCCCCC)c5c4[C@@]2(CCN3CC2CC2)[C@H]1O5"
0%
